Target: RanGDP (wild-type Ran, GDP-bound) (Rattus norvegicus, UniProt P62828 1-216)
Test: ITC
Below: a set of entries, each annotated with reported Kd.
Express it in µM; write the number only.

GTWDCDTCLVQNKPEAVKCVACETPKPG (domain or fragment) [Nup153-ZnF2]; 49

Req: Look at this binder and give its reported Kd. GSWDCEVCLVQNKADSTKCIACESAKPGTKSEFKGFGT (domain or fragment) [Nup153-ZnF4]
Resp: 47

Req: Look at this binder and give its reported Kd. Nup358-ZnF12 (domain or fragment) KEGSWWHCNSCSLKNASTAKKCVSCQNLNPSNKELVGPPLAETVFTPKTSPENVQDRFALVTPKKEGHWDCSICLVRNEPTVSRCIACQNTKSA
Resp: 15
